# Test system: U2OS
# TEST_NAME: cell viability relative to DMSO; higher = less toxic
# SETTINGS: 72 h; 1 nM
Reported cell viability by item:

COMPOUND | UNIT_ABBREVIATION | cell viability
COc1cc(C(=S)N2CCOCC2)cc(OC)c1OC | % | 97.2
COC(=O)c1sccc1S(=O)(=O)Nc1ccc(Nc2ccccc2)cc1OC | % | 101
C=CCN1CCc2cc(O)c(O)cc2[C@H](c2ccccc2)C1 | % | 99.7
Cc1ccnc(NC(=O)C(C)c2cccc(C(=O)c3ccccc3)c2)c1 (centres undefined) | % | 105
CCc1cnc(N2CCC(c3nc(COc4ccc(-n5cnnn5)cc4)cs3)CC2)nc1 | % | 103
COc1cccc(OCCCN)c1-c1cc(Nc2cnc(C#N)cn2)n[nH]1 | % | 101
CCOC(=O)[C@H](CCc1ccccc1)N[C@H]1CS[C@H](c2cccs2)CN(CC(=O)O)C1=O | % | 97.7
COCCOc1ccc2c(c1)ncn2-c1ccc2cccc(N3CCC(N)CC3)c2n1 | % | 98.6
CCCCC(F)(F)[C@@]1(O)CC[C@H]2[C@@H](CC(=O)[C@@H]2CCCCCCC(=O)O)O1 | % | 104
CS(=O)(=O)c1ccc([C@@H](O)[C@@H](CF)NC(=O)C(Cl)Cl)cc1 | % | 99.9
N#Cc1c(Oc2ccc(F)c(NC(=O)Cc3cccc(C(F)(F)F)c3)c2)ccc2nc(NC(=O)C3CC3)sc12 | % | 97.9
COc1cc(C(C)=O)ccc1O | % | 99.8
CC(C)COc1ccc(CNC(=O)N(Cc2ccc(F)cc2)C2CCN(C)CC2)cc1 | % | 99.4
O=c1[nH]c2ccccc2n1C1CCN(CCOc2ccccc2)CC1 [oxiperomide] | % | 98.9
Clc1ccccc1CNC[C@H]1CC[C@H](CNCc2ccccc2Cl)CC1 | % | 97.4
CN1CCN(C2=Cc3ccccc3Oc3ccc(Cl)cc32)CC1 | % | 101
CN(C)CCn1cc(S(=O)(=O)c2cccc(F)c2)c2cccnc21 | % | 103
CS(=O)(=O)c1ccc(Oc2cc(F)cc(C#N)c2)c2c1[C@H](O)C(F)(F)C2 | % | 103
CCN1C(C)(C)CC(Oc2ccc(C(=O)Nc3ccc(NC(=O)Nc4cc(C(C)(C)C)on4)cc3)nc2)CC1(C)C | % | 98.9

The measured values listed here are drawn from the supplement of paper PMC13380429.
